Hey, just so you know, these numbers are from patent US6310095A.

Target: protein farnesyltransferase (Rattus norvegicus, UniProt Q02293+Q04631)
Construct: Rat brain protein farnesyltransferase activity is measured; from tissue; host or cells: rat brain; purified according to Reiss et al., Cell 62:81-88 (1990), steps one through three
Assay: in vitro inhibition of protein farnesyltransferase (scintillation proximity assay, biotin-K Ras B fragment)
Assay type: biochemical
Conditions: at 1 × 10^-6 M
propertyMeasured: % inhibition of farnesyltransferase (%)

Sample answers from the record:
CSCC[C@H](NC(=O)c1ccc(OCCCCOc2ccccc2)cc1-c1ccccc1C)C(=O)O    93
CSCC[C@H](NC(=O)c1ccc(COCc2ccsc2)cc1-c1ccccc1C)C(=O)[O-].[Li+]    94

P. CSCC[C@H](NC(=O)c1ccc(CCc2cnc(Oc3ccccc3)cn2)cc1-c1ccccc1C)C(=O)O
Q. CSCC[C@H](NC(=O)c1ccc(CNC(C)(C)CC2CCCCC2)cc1-c1ccccc1C)C(=O)O
Query :: Between P and Q , whose recorded % inhibition of farnesyltransferase is greater? Answer by quoting the chosen item's label.
Result :: P
(P: 95%, Q: 62%)
